Parameter IC50: see the listing below.
- experimentalTarget: penicillinase (β-lactamase) derived from Bacillus sp.
- assay: β-lactamase inhibitory activity measured by microiodometry using penicillin G as substrate
- testParameters: read-out: 50% Inhibitory Concentration
Please answer in the form of a number followed by its unit of measurement.

C[C@]1(Cn2nnc(CO)c2CO)[C@H](C(=O)O)N2C(=O)C[C@H]2S1(=O)=O :: 2000 nM
C[C@]1(Cn2nnc(-c3ccccc3)c2-c2ccccc2)[C@H](C(=O)O)N2C(=O)C[C@H]2S1(=O)=O :: 270 nM
Cc1cnnn1C[C@@]1(C)[C@H](C(=O)O)N2C(=O)C[C@H]2S1(=O)=O :: 240 nM

# ---- query molecule ----
Prompt: Return reported IC50. Input molecule: C[C@]1(Cn2nnc(COCc3ccccc3)c2COCc2ccccc2)[C@H](C(=O)O)N2C(=O)C[C@H]2S1(=O)=O
Completion: 1500 nM
